Listed below: EC50 values for each entry.
- Test system: genotype 1b-Con1 subgenomic replicon cell line
- protocol_summary: HCV Polymerase Replicon Assay, genotype 1b-Con1 (luciferase reporter)
- Assay type: cell-based
- condition_notes: Hepatitis C virus, 72 h, read-out: EC50 1b
measured_attribute: EC50

* COc1c(/C=C/c2ccc(NS(C)(=O)=O)cc2C(=O)N(C)C)cc(-n2ccc(=O)[nH]c2=O)cc1C(C)(C)C [IB-L1-1.14] | < 10 nM
* CO/N=C/c1cc(NS(C)(=O)=O)ccc1/C=C/c1cc(-n2ccc(=O)[nH]c2=O)cc(C(C)(C)C)c1OC [IB-L1-1.19] | < 10 nM
* COc1c(/C=C/c2ccc(NS(C)(=O)=O)cc2CN2CC(O)C2)cc(-n2ccc(=O)[nH]c2=O)cc1C(C)(C)C [IB-L1-1.29] | 100 to 1000 nM
* COc1c(/C=C/c2ccc(NS(C)(=O)=O)cc2C=NO)cc(-n2ccc(=O)[nH]c2=O)cc1C(C)(C)C [IB-L1-1.8] | < 10 nM
* COc1c(/C=C/c2ccc(NS(C)(=O)=O)cc2-c2ncc[nH]2)cc(-n2ccc(=O)[nH]c2=O)cc1C(C)(C)C [IB-L1-1.16] | 10 to 100 nM
* COC(=O)c1cc(NS(C)(=O)=O)ccc1/C=C/c1cc(-n2ccc(=O)[nH]c2=O)cc(C(C)(C)C)c1OC [IB-L1-1.7] | < 10 nM
* COc1c(C=C(F)c2ccc(NS(C)(=O)=O)cc2)cc(N2CCC(=O)NC2=O)cc1C(C)(C)C (racemic) [IA-L1-1.21] | < 10 nM
* COc1c(/C=C/c2ccc(NS(C)(=O)=O)cc2CO)cc(-n2ccc(=O)[nH]c2=O)cc1C(C)(C)C [IB-L1-1.10] | < 10 nM
* COCCNC(=O)c1cc(NS(C)(=O)=O)ccc1/C=C/c1cc(-n2ccc(=O)[nH]c2=O)cc(C(C)(C)C)c1OC [IB-L1-1.9] | < 10 nM
* COCc1cc(NS(C)(=O)=O)ccc1/C=C/c1cc(-n2ccc(=O)[nH]c2=O)cc(C(C)(C)C)c1OC [IB-L1-1.13] | < 10 nM
